test system: 648629-189-R-J1-PDC spheroids with HUVEC/MSC, viability; assay: Anticancer human tumor 648629-189-R-J1-PDC patient-derived bladder carcinoma cell line growth inhibition [PI3K]; conditions: second compound 0.00316 µM; first compound 1 µM; stronger effect = lower value
readoutLabel: viability, T/C (%)
Field format: number, assumed %, no unit text.

Prompt: Give recorded viability, T/C with 648629-189-R-J1-PDC spheroids with HUVEC/MSC, viability for the following molecule: C=CC(=O)N1CCN(c2nc(=O)n(-c3c(C)ccnc3C(C)C)c3nc(-c4c(O)cccc4F)c(F)cc23)C(C)C1 (stereo unspecified) + COc1c(OCCCN2CCOCC2)ccc2c3n(c(=NC(=O)c4cnc(N)nc4)nc12)CCN3
Response: 108

Prompt: Can you handle CC1(C)CCC(Nc2ncc(C(F)(F)F)c(-c3c[nH]c4c(P(C)(C)=O)c(C#N)ccc34)n2)CN1 (stereo unspecified) + CC(Nc1ccc2c(c1)OCCn1cc(N3C(=O)OCC3C(F)F)nc1-2)C(N)=O next?
Response: 35.4

Prompt: Entry CC1(C)CCC(CN2CCN(c3ccc(C(=O)NS(=O)(=O)c4ccc(NCC5CCOCC5)c([N+](=O)[O-])c4)c(Oc4cnc5[nH]ccc5c4)c3)CC2)=C(c2ccc(Cl)cc2)C1 + CC(Nc1ccc2c(c1)OCCn1cc(N3C(=O)OCC3C(F)F)nc1-2)C(N)=O please
Response: 80.7

Prompt: Moving on to the next molecule: CC1(C)CCC(CN2CCN(c3ccc(C(=O)NS(=O)(=O)c4ccc(NCC5CCOCC5)c([N+](=O)[O-])c4)c(Oc4cnc5[nH]ccc5c4)c3)CC2)=C(c2ccc(Cl)cc2)C1 + COc1c(OCCCN2CCOCC2)ccc2c3n(c(=NC(=O)c4cnc(N)nc4)nc12)CCN3
Response: 108

Prompt: What do we get for C[C@@H](NC(=O)c1ncnc(N)c1Cl)c1ncc(C(=O)Nc2cc(C(F)(F)F)c(Cl)cn2)s1 + COc1c(OCCCN2CCOCC2)ccc2c3n(c(=NC(=O)c4cnc(N)nc4)nc12)CCN3 ?
Response: 107

Prompt: // next record CCCS(=O)(=O)Nc1ccc(F)c(C(=O)c2c[nH]c3ncc(-c4ccc(Cl)cc4)cc23)c1F + COc1c(OCCCN2CCOCC2)ccc2c3n(c(=NC(=O)c4cnc(N)nc4)nc12)CCN3
Response: 100

---

Tested on: 648629-189-R-J1-PDC spheroids with HUVEC/MSC, viability
Test: Anticancer human tumor 648629-189-R-J1-PDC cell line growth inhibition [PI3K];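 also: spheroids exposed to agents for seven days before reading; percent of vehicle control luminescence where 100% = DMSO treated spheroids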
Settings: second compound 0.0316 µM; first compound 0.1 µM; stronger effect = lower value
Text: Combinatorial screen of targeted agents with the PI3K inhibitors inavolisib, alpelisib, duvelisib, and copanlisib in multi-cell type tumor spheroids A high-throughput screen of multi-cell type tumor spheroids was designed to identify active combinations of targeted small molecules and PI3K pathway inhibitors. […] Compounds. […] If the clinical Cmax for an agent had not been determined, the highest concentration tested was 10 microM. […]
Under this convention, Criterion met denotes viability, T/C strictly below 90% and Criterion not met denotes viability, T/C at or above 90%.

Prompt: Identify whether the compound CC(Cn1ccc(-c2ccc(C#N)c(Cl)c2)n1)NC(=O)c1cc(C(C)O)[nH]n1 (stereo not drawn) + COc1c(OCCCN2CCOCC2)ccc2c3n(c(=NC(=O)c4cnc(N)nc4)nc12)CCN3 records viability, T/C below 90%.
Response: Criterion not met

Prompt: Another compound to look at: CC(C)n1nc(-c2ccc3oc(N)nc3c2)c2c(N)ncnc21 + CC(Nc1ccc2c(c1)OCCn1cc(N3C(=O)OCC3C(F)F)nc1-2)C(N)=O
Response: Criterion met

Prompt: Same lookup for CC(=O)c1c(C)c2cnc(Nc3ccc(N4CCNCC4)cn3)nc2n(C2CCCC2)c1=O + Cc1nc(NC(=O)N2CCCC2C(N)=O)sc1-c1ccnc(C(C)(C)C(F)(F)F)c1 , please.
Response: Criterion not met

Prompt: Can you check CCCS(=O)(=O)Nc1ccc(F)c(C(=O)c2c[nH]c3ncc(-c4ccc(Cl)cc4)cc23)c1F + CC(Nc1ccc2c(c1)OCCn1cc(N3C(=O)OCC3C(F)F)nc1-2)C(N)=O next?
Response: Criterion not met

Prompt: Same again, this time with CC(C)n1nc(-c2ccc3oc(N)nc3c2)c2c(N)ncnc21 + COc1c(OCCCN2CCOCC2)ccc2c3n(c(=NC(=O)c4cnc(N)nc4)nc12)CCN3
Response: Criterion met

Prompt: Moving on to the next compound: CC(C)n1nc(-c2ccc3oc(N)nc3c2)c2c(N)ncnc21 + Cc1nc(NC(=O)N2CCCC2C(N)=O)sc1-c1ccnc(C(C)(C)C(F)(F)F)c1
Response: Criterion met

Prompt: Now consider C=CC(=O)N1CCN(c2nc(=O)n(-c3c(C)ccnc3C(C)C)c3nc(-c4c(O)cccc4F)c(F)cc23)C(C)C1 (stereo not drawn) + CC(Nc1ncnc2nc[nH]c12)c1cc2cccc(Cl)c2c(=O)n1-c1ccccc1 .
Response: Criterion not met

Prompt: And Cn1ncnc1[C@H]1c2n[nH]c(=O)c3cc(F)cc(c23)N[C@@H]1c1ccc(F)cc1 + COc1c(OCCCN2CCOCC2)ccc2c3n(c(=NC(=O)c4cnc(N)nc4)nc12)CCN3 ?
Response: Criterion met

Prompt: What would you report for CC(C)NCC(C(=O)N1CCN(c2ncnc3c2C(C)CC3O)CC1)c1ccc(Cl)cc1 (stereo not drawn) + Cc1nc(NC(=O)N2CCCC2C(N)=O)sc1-c1ccnc(C(C)(C)C(F)(F)F)c1 ?
Response: Criterion met

Prompt: Same lookup for CC(Cn1ccc(-c2ccc(C#N)c(Cl)c2)n1)NC(=O)c1cc(C(C)O)[nH]n1 (stereo not drawn) + CC(Nc1ccc2c(c1)OCCn1cc(N3C(=O)OCC3C(F)F)nc1-2)C(N)=O , please.
Response: Criterion not met

Prompt: Also, CC(Cn1ccc(-c2ccc(C#N)c(Cl)c2)n1)NC(=O)c1cc(C(C)O)[nH]n1 (stereo not drawn) + Cc1nc(NC(=O)N2CCCC2C(N)=O)sc1-c1ccnc(C(C)(C)C(F)(F)F)c1 please.
Response: Criterion not met

Prompt: Same lookup for C#Cc1c(F)ccc2cc(O)cc(-c3ncc4c(N5CC6CCC(C5)N6)nc(OCC56CCCN5CC(F)C6)nc4c3F)c12 (stereo not drawn) + CC(Nc1ccc2c(c1)OCCn1cc(N3C(=O)OCC3C(F)F)nc1-2)C(N)=O , please.
Response: Criterion not met
